- measurementDescription: Toxicokinetic evaluation of 14-day repeated intragastric administration to SD rats
- Assay type: in vivo
- setupConditions: both sexes, SD, rat, plasma, po, 30 mg/kg, repeated intragastric 30 mg/kg, Day 14, read-out: Apparent volume of distribution Vz/F
measurementLabel: Vd/F (L/kg)

[[record]]
compoundstructure = "Cc1ccc(F)c([C@H](C)Nc2nc(=O)n(C3CCOCC3)c(=O)[nH]2)c1"
measurementlabel = "Vd/F"
observed = 1.69


###

- measurementDescription: Toxicokinetic evaluation of 14-day repeated intragastric administration to SD rats
- Type: in vivo
- setupConditions: both sexes, SD, rat, plasma, po, 15 mg/kg, repeated intragastric 15 mg/kg, Day 7, read-out: Residence time MRT
measurementLabel: MRT (h)

[[record]]
compoundstructure = "Cc1ccc(F)c([C@H](C)Nc2nc(=O)n(C3CCOCC3)c(=O)[nH]2)c1"
observed = 6.7


Values were extracted from patent US20240010639A1.
